assay_overview: Solubility, turbidity
Format: physicochemical
condition_label: kinetic from dmso stock
property_measured: solubility

O=C(CN1CCOCC1)Nc1cccc(-c2nc(-c3c[nH]c(C(=O)N4CCCC4)c3)cs2)c1 :: 60 to 80 µM

====

assay_overview: hLM T½ (stability)
Type: in vitro ADME
condition_label: human, liver microsomes
property_measured: half-life (min)

O=C(CN1CCOCC1)Nc1cccc(-c2nc(-c3c[nH]c(C(=O)N4CCCC4)c3)cs2)c1 :: 36

====

Tested on: JAK3 pathway
assay_overview: Cell based JAK3 pathway inhibition (STAT6-bla RA1 cells, IL-4 activated)
condition_label: STAT6-bla RA1 cells, IL-4 at EC80
Collected IC50 values appear next to each entry.
property_measured: IC50

NC(=O)c1cc(-c2csc(-c3cccc(NC(=O)CN4CCOCC4)c3)n2)c[nH]1 [29A] :: > 10 µM
O=C(CN1CCOCC1)Nc1ccc(-c2nc(-c3c[nH]c(C(=O)N4CCCCC4)c3)cs2)cc1 [31A] :: 1.1 to 10 µM
Cc1ccc(-c2nc(-c3c[nH]c(C(=O)N4CCCC4)c3)cs2)c(C)c1 [63A] :: 0.11 to 1 µM
O=C(c1cc(-c2csc(Nc3ccc(F)cc3)n2)c[nH]1)N1CCCC1 [13A] :: 0.11 to 1 µM
O=C(Nc1cccc(-c2nc(-c3c[nH]c(C(=O)N4CCCC4)c3)cs2)c1)N1CCOCC1 [28A] :: 0.11 to 1 µM
O=C(c1cc(-c2csc(Nc3ccccc3)n2)c[nH]1)N1CCCC1 [12A] :: 0.11 to 1 µM
CN1CCN(CC(=O)Nc2cccc(-c3nc(-c4c[nH]c(C(=O)N5CCCC5)c4)cs3)c2)CC1 [17A] :: 0.11 to 1 µM
CN(C)C(=O)c1cc(-c2csc(-c3cccc(NC(=O)CN4CCOCC4)c3)n2)c[nH]1 [23A] :: 1.1 to 10 µM
CCN(CC)CC(=O)Nc1cc(-c2nc(-c3c[nH]c(C(=O)N4CCCC4)c3)cs2)ccc1OC [34A] :: 0.11 to 1 µM
O=C(CN1CCOCC1)Nc1cc(-c2nc(-c3c[nH]c(C(=O)N4CCCC4)c3)cs2)ccc1F [35A] :: 0.11 to 1 µM
O=C(c1cc(-c2csc(NCc3ccco3)n2)c[nH]1)N1CCCC1 :: 1.1 to 10 µM
O=C(CN1CCCCC1)Nc1cccc(-c2nc(-c3c[nH]c(C(=O)N4CCCC4)c3)cs2)c1 [20A] :: 0.11 to 1 µM
O=C(CN1CCOCC1)Nc1ccc(-c2nc(-c3c[nH]c(C(=O)N4CCCC4)c3)cs2)cc1 [22A] :: 0.11 to 1 µM
CN(C)CC(=O)Nc1cccc(-c2nc(-c3c[nH]c(C(=O)N4CCCC4)c3)cs2)c1 [26A] :: 0.11 to 1 µM
CCN(CC)C(=O)c1cc(-c2csc(-c3cccc(NC(=O)CN4CCOCC4)c3)n2)c[nH]1 [30A] :: 1.1 to 10 µM

====

Collected IC50 values appear next to each entry.
System: JAK3 pathway
assay_overview: Cell based JAK3 pathway inhibition (STAT6-bla RA1 cells, IL-4 activated)
condition_label: STAT6-bla RA1 cells, IL-4 at EC80
property_measured: IC50

O=C(CN1CCOCC1)Nc1cccc(-c2nc(-c3c[nH]c(C(=O)NC4CC4)c3)cs2)c1 [27A] :: 1.1 to 10 µM
COc1ccc(-c2nc(-c3c[nH]c(C(=O)N4CCCC4)c3)cs2)cc1NC(=O)CN1CCOCC1 [32A] :: 0.11 to 1 µM
O=C(c1cc(-c2csc(-c3ccc(Cl)cc3)n2)c[nH]1)N1CCCC1 [61A] :: 0.11 to 1 µM
COc1ccc(-c2nc(-c3c[nH]c(C(=O)N4CCCC4)c3)cs2)cc1NC(=O)CN1CCCCC1 [33A] :: 0.11 to 1 µM
CC(=O)Nc1cccc(-c2nc(-c3c[nH]c(C(=O)N4CCCC4)c3)cs2)c1 [21A] :: 0.11 to 1 µM
O=C(CN1CCOCC1)Nc1cccc(-c2nc(-c3c[nH]c(C(=O)N4CCCC4)c3)cs2)c1 :: 0.11 to 1 µM
CN1CCN(CC(=O)Nc2cccc(-c3nc(-c4c[nH]c(C(=O)N(C)C)c4)cs3)c2)CC1 [25A] :: > 10 µM
CN(C)C(=O)c1cc(-c2csc(-c3cccc(NC(=O)CN4CCCCC4)c3)n2)c[nH]1 [24A] :: 1.1 to 10 µM
O=C(c1cc(-c2csc(-c3ccccn3)n2)c[nH]1)N1CCCC1 [53A] :: 0.11 to 1 µM
